These entries and their values trace back to patent US10077261B2.

Molecular target: hFASN enzyme (full length) (Homo sapiens, UniProt P49327)
Construct: 10 μL hFASN enzyme (full length, 300 ng, purified in house); made in house
Sequence (P49327 whole entry): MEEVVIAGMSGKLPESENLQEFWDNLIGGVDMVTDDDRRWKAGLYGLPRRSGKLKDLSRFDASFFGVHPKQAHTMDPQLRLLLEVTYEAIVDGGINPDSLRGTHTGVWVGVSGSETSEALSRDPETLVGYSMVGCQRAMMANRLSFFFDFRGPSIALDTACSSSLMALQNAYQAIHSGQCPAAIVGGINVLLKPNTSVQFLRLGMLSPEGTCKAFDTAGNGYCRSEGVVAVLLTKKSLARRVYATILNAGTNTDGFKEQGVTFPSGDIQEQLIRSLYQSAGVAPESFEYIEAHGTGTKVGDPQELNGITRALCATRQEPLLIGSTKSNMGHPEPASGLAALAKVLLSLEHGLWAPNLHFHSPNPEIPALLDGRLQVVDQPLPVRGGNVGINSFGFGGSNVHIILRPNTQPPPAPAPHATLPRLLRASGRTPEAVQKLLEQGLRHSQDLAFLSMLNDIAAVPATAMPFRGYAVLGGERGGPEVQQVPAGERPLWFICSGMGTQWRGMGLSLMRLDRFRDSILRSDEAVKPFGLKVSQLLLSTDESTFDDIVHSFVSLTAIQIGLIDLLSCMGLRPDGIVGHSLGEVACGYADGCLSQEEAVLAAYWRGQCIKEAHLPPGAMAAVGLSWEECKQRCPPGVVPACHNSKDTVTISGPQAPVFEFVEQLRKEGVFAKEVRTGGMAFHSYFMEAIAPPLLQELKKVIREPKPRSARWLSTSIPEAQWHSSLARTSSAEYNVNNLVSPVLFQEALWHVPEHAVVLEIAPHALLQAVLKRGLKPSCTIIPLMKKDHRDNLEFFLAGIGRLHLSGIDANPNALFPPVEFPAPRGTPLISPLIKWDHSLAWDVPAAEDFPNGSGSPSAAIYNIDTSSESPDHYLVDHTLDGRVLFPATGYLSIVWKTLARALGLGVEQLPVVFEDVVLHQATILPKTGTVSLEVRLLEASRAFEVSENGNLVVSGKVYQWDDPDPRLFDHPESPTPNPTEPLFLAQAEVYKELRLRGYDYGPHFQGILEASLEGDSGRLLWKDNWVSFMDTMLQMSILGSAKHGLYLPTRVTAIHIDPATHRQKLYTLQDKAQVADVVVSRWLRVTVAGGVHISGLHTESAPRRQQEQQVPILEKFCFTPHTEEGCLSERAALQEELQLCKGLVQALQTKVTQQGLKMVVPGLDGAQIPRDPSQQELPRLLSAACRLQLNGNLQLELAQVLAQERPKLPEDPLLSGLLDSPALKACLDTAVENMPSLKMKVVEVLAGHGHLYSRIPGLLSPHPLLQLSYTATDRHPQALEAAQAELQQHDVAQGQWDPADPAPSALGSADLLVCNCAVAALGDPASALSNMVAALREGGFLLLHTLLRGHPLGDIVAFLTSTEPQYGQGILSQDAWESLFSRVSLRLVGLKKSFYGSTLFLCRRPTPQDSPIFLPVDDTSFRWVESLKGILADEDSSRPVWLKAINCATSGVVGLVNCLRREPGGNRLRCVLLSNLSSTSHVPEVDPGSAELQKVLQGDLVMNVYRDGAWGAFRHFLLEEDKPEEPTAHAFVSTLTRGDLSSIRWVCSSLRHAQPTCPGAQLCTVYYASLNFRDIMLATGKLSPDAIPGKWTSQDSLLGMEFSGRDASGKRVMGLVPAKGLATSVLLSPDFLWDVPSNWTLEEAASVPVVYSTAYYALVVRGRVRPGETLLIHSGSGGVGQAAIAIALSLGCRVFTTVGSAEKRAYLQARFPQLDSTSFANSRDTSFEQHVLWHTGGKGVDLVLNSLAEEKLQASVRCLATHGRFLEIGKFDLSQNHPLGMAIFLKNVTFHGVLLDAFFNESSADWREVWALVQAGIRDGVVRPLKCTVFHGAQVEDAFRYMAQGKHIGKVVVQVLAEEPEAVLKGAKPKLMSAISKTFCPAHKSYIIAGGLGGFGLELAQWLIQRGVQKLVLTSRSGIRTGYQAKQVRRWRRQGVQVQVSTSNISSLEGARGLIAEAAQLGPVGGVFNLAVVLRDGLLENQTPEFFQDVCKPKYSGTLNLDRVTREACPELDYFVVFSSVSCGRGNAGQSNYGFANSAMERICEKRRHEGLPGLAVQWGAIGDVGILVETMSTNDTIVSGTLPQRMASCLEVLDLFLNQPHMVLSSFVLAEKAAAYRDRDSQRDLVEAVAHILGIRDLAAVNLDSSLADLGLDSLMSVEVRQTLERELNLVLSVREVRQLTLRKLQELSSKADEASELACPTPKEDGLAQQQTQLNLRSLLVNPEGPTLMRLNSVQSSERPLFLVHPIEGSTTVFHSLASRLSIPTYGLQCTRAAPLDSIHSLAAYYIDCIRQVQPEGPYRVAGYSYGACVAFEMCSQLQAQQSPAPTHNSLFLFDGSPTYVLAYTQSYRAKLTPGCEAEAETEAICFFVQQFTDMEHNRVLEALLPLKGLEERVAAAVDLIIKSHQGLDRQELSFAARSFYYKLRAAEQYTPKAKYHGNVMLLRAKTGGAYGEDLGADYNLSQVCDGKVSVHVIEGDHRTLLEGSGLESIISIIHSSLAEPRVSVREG
Experiment: Fatty Acid Synthase (FASN) inhibition scintillation proximity assay
Type: biochemical
Settings: read-out: Human FASN % inhibition @ 10 μM, 10 μM test compound
We begin with a simple list: items and their reported inhibition at 10 µM.
RESULT TYPE: inhibition at 10 µM (%)

compound=Cc1cc(-c2cccc3c2cnn3C)ccc1C1=NC2(CC2)C(=O)N1CC1CN(C(=O)C2(C)CC2)C1 target_under_test="hFASN enzyme (full length) (Homo sapiens, UniProt P49327)" measure_unit=% recorded_value=102
compound="CC(O)C(=O)N1CC[C@@H](CN2C(=O)C3(CCOC3)N=C2c2ccc(-c3ccc4c(cnn4C)c3)cc2)C1 (stereo partly shown)" target_under_test="hFASN enzyme (full length) (Homo sapiens, UniProt P49327)" measure_unit=% recorded_value=63
compound="Cn1cc(-c2ccc(-c3ccc(C4=NC5(CCOC5)C(=O)N4CC4CN(C(=O)C5CC5)C4)cc3)cc2)cn1 (stereo not shown)" target_under_test="hFASN enzyme (full length) (Homo sapiens, UniProt P49327)" measure_unit=% recorded_value=66
compound=Cn1ncc2cc(-c3ccc(C4=NC5(CCCC5)C(=O)N4C[C@@H]4CCN(C(=O)C5CC5)C4)c(F)c3)ccc21 target_under_test="hFASN enzyme (full length) (Homo sapiens, UniProt P49327)" measure_unit=% recorded_value=101
compound=Cc1cc2cc(-c3ccc(C4=NC5(CC5)C(=O)N4CC4CN(C(=O)C5CC5)C4)c(F)c3)ccc2s1 target_under_test="hFASN enzyme (full length) (Homo sapiens, UniProt P49327)" measure_unit=% recorded_value=88
compound=COc1cc(-c2ccc3[nH]ccc3c2)ccc1C1=NC2(CCCC2)C(=O)N1C[C@@H]1CCN(C(=O)C2CC2)C1 target_under_test="hFASN enzyme (full length) (Homo sapiens, UniProt P49327)" measure_unit=% recorded_value=112
compound=O=C(C1CC1)N1CC(CN2C(=O)C3(CC3)N=C2c2ccc(-c3cc4cn(CCO)nc4cc3F)cc2)C1 target_under_test="hFASN enzyme (full length) (Homo sapiens, UniProt P49327)" measure_unit=% recorded_value=85
compound=Cn1cc(-c2ccc(-c3ccc(C4=NC5(CCN(C(=O)C6CC6)CC5)C(=O)N4CC4CN(C(=O)C5CC5)C4)cc3)cc2)cn1 target_under_test="hFASN enzyme (full length) (Homo sapiens, UniProt P49327)" measure_unit=% recorded_value=77
compound=Cc1oc2ccc(-c3ccc(C4=NC5(CC5)C(=O)N4CC4CN(C(=O)C5CC5)C4)cc3F)cc2c1C target_under_test="hFASN enzyme (full length) (Homo sapiens, UniProt P49327)" measure_unit=% recorded_value=62
compound=O=C(C1CC1)N1CC[C@@H](CN2C(=O)C3(CC3)N=C2c2ccc(-c3ccc4ncccc4c3)cc2F)C1 target_under_test="hFASN enzyme (full length) (Homo sapiens, UniProt P49327)" measure_unit=% recorded_value=99
compound=Cc1cc2cc(-c3ccc(C4=NC5(CC5)C(=O)N4C[C@@H]4CCN(C(=O)C5CC5)C4)cc3)ccc2s1 target_under_test="hFASN enzyme (full length) (Homo sapiens, UniProt P49327)" measure_unit=% recorded_value=100
compound=Cc1cc2cc(-c3ccc(C4=NC5(CC5)C(=O)N4CC4CN(C(=O)C5CC5)C4)c(F)c3)ccc2o1 target_under_test="hFASN enzyme (full length) (Homo sapiens, UniProt P49327)" measure_unit=% recorded_value=101
compound="Cn1ncc2cc(-c3ccc(C4=NC5(CCOC5)C(=O)N4CC4CN(C(=O)[C@H]5CCCO5)C4)cc3)ccc21 (stereo partly shown)" target_under_test="hFASN enzyme (full length) (Homo sapiens, UniProt P49327)" measure_unit=% recorded_value=47
compound=Cc1cc(-c2ccc3sc(C)c(C)c3c2)ccc1C1=NC2(CC2)C(=O)N1C[C@@H]1CCN(C(=O)C2CC2)C1 target_under_test="hFASN enzyme (full length) (Homo sapiens, UniProt P49327)" measure_unit=% recorded_value=112
compound=O=C(C1CC1)N1CC[C@@H](CN2C(=O)C3(CC3)N=C2c2ccc(-c3ccc4cccc(F)c4c3)cc2F)C1 target_under_test="hFASN enzyme (full length) (Homo sapiens, UniProt P49327)" measure_unit=% recorded_value=101
compound=Cc1cc(-c2ccc(-c3cnn(C)c3)cc2)ccc1C1=NC2(CC2)C(=O)N1C[C@@H]1CCN(C(=O)C2(C)CC2)C1 target_under_test="hFASN enzyme (full length) (Homo sapiens, UniProt P49327)" measure_unit=% recorded_value=97
